From: patent US20250360134A1

Here, each record is paired with measured log10 IC50 data.
- Test system: Plasmodium falciparum W2
- protocol-notes: In vitro antiplasmodial activity, SYBR Green I, strain W2
- settings: Plasmodium falciparum, W2, 48 h, read-out: IC50 Plasmodium falciparum W2, chloroquine-resistant strain W2, 48-hour incubation
Counter-ions that a name gives are not always drawn.
Each number you see is log10 of IC50, and the unit inside the log is µM.

As a guide, the following entries are already answered.
CN(C)CCCCNCc1ccc(-c2nc(-c3ccc(CNCCCCN(C)C)cc3)c3ncn(-c4ccccc4)c3n2)cc1 [Compound 40B]	0.25
CN(C)CCCCNCc1ccc(-c2nc(-c3ccc(CNCCCCN(C)C)cc3)c3cnn(-c4ccccc4)c3n2)cc1 [Compound 37B]	0.07
CN1CCN(CCCNCc2ccc(-c3nc(Cl)nc4[nH]ccc34)cc2)CC1 [Compound 16B, oxalate]	1.41
CN(C)CCCNCc1ccc(-c2nc(-c3ccc(CNCCCN(C)C)cc3)c3ccn(-c4ccc(CNCCCN(C)C)cc4)c3n2)cc1 [Compound 13B, oxalate]	1.03
CN(C)CCCNCc1ccc(-c2nc(-c3ccc(CNCCCN(C)C)cc3)c3ccn(-c4ccccc4)c3n2)cc1 [Compound 1B, oxalate]	0.43

# input molecule: COC(=O)C(CCCCNCc1ccc(-c2nc(-c3ccc(CNCCCCC(NC(=O)OC(C)(C)C)C(=O)OC)cc3)c3ccn(C)c3n2)cc1)NC(=O)OC(C)(C)C (stereo not shown) [Compound 10B] ; wanted: its log10 IC50
0.64

# input molecule: CN(C)CCCNCc1ccc(-c2nc(Cl)nc3[nH]ccc23)cc1 [Compound 15B, oxalate] ; wanted: its log10 IC50
1.18

---

Here, each record is paired with measured IC50 data.
- Test system: Plasmodium falciparum W2
- protocol-notes: In vitro antiplasmodial activity, SYBR Green I, strain W2
- settings: Plasmodium falciparum, W2, 48 h, read-out: IC50 Plasmodium falciparum W2, chloroquine-resistant strain W2, 48-hour incubation
Where a name gives a salt, the structure may show the parent alone.
Give just the number in nM; leave the unit off.

# input compound: CN(C)CCCNCc1ccc(-c2nc(-c3ccc(CNCCCN(C)C)s3)c3ccn(-c4ccccc4)c3n2)cc1 [Compound 6B, oxalate] ; wanted: its IC50
750

# input compound: CN(C)CCCNCc1ccc(-c2nc(Cl)nc3c2ccn3-c2ccccc2)cc1 [Compound 17B, oxalate] ; wanted: its IC50
290

# input compound: CC(C)N(CCCCCNCc1ccc(-c2nc(-c3ccc(CNCCCCCN(C(C)C)C(C)C)cc3)c3ccn(-c4ccccc4)c3n2)cc1)C(C)C [Compound 34B, oxalate] ; wanted: its IC50
770

# input compound: CN(C)CCCNCc1ccc(-c2nc(Cl)nc3c2ccn3-c2ccccc2)s1 [Compound 19B, oxalate] ; wanted: its IC50
4560

# input compound: CN1CCN(CCCNCc2ccc(-c3nc(-c4ccc(CNCCCN5CCN(C)CC5)cc4)c4ccn(-c5ccccc5)c4n3)cc2)CC1 [Compound 2B, oxalate] ; wanted: its IC50
1010

---

- Test system: Plasmodium falciparum W2
- protocol-notes: In vitro antiplasmodial activity, SYBR Green I, strain W2
- settings: Plasmodium falciparum, W2, 48 h, read-out: IC50 Plasmodium falciparum W2, chloroquine-resistant strain W2, 48-hour incubation
Counter-ions that a name gives are not always drawn.
Here, each record is paired with measured IC50 data.
Give just the number in nM; leave the unit off.

As a guide, the following entries are already answered.
CN(C)CCCNCc1ccc(-c2nc(NCCCN(C)C)nc3ccsc23)cc1 [Compound 31B]	5690
CN1CCN(CCCCNCc2ccc(-c3nc(-c4ccc(CNCCCCN5CCN(C)CC5)cc4)c4cnn(-c5ccccc5)c4n3)cc2)CC1 [Compound 39B, oxalate]	1530

# input compound: CN(C)CCCNCc1ccc(-c2cc(Cl)nc3c2ccn3-c2ccccc2)cc1 [Compound 47B, oxalate] ; wanted: its IC50
720

# input compound: CN(C)CCCNCc1ccc(-c2nc(-c3ccc(CNCCCN(C)C)s3)nc3c2ccn3-c2ccccc2)cc1 [Compound 7B, oxalate] ; wanted: its IC50
2390

# input compound: CCN(CC)CCCCNCc1ccc(-c2nc(-c3ccc(CNCCCCN(CC)CC)cc3)c3ccn(-c4ccccc4)c3n2)cc1 [Compound 33B, oxalate] ; wanted: its IC50
700
